# Test system: Candida albicans
# Test method notes: Antifungal activity against Candida albicans Y0109 after 24 hrs by micro-broth dilution method
# Type: functional
# Measurement setup: Y0109, 24 h
# MIC listing for each entry below

Guide cases for MIC, answers given:
[Q] Which measured MIC value corresponds to OC(CN(Cc1cn(Cc2ccc(Br)cc2)nn1)C1CC1)(Cn1cncn1)c1ccc(F)cc1F (stereo not given) ?
[A] 0.0156 µg/mL

[Q] Thanks! And O=[N+]([O-])c1cccc(Cn2cc(CN(CC(O)(Cn3cncn3)c3ccc(F)cc3F)C3CC3)nn2)c1 (stereo not given) ?
[A] 0.0625 µg/mL

[Q] // next record OC(Cn1cncn1)(Cn1cncn1)c1ccc(F)cc1F [FLUCONAZOLE]
[A] 0.5 µg/mL

[Q] Follow-up entry: CC(C)N(Cc1cn(Cc2cccc(F)c2)nn1)CC(O)(Cn1cncn1)c1ccc(F)cc1F (stereo not given)
[A] 0.0156 µg/mL

Others:
[Q] Fill in: MIC of OC(CN(Cc1cn(Cc2cccc(Cl)c2)nn1)C1CC1)(Cn1cncn1)c1ccc(F)cc1F (stereo not given) is ___
[A] 0.0156 µg/mL

Cited source for all entries: ChEMBL document CHEMBL1250476
